Data provenance: patent US20200385427

- Test target: T1, cFΦR4-PCP (not fully specified)
- T1 chain: FXRRRRQXDEXLI
Parameter measured: kcat/KM (dephosphorylation of pCAP peptide) (M⁻¹ s⁻¹)
Reply with just the number (in M⁻¹ s⁻¹).

Q. Fill blank: measured kcat/KM (dephosphorylation of pCAP peptide) of the protein SHP2 (protein) AETTDKVKQGFWEEFETLQQQECKLLYSRKEGQRQENKNKNRYKNILPFDHTRVVLHDGDPNEPVSDYINANIIMPEFETKCNNSKPKKSYIATQGCLQNTVNDFWRMVFQENSRVIVMTTKEVERGKSKCVKYWPDEYALKEYGVMRVRNVKESAAHDYTLRELKLSKVGQGNTERTVWQYHFRTWPDHGVPSDPGGVLDFLEEVHHKQESIMDAGPVVVHCSAGIGRTGTFIVIDILIDIIREKGVDCDIDVPKTIQMVRSQRSGMVQTEAQYRFIYMAVQHYIETLQRRI is ____.
A. 7400

Q. And for PTP1B (protein) MEMEKEFEQIDKSGSWAAIYQDIRHEASDFPCRVAKLPKNKNRNRYRDVSPFDHSRIKLHQEDNDYINASLIKMEEAQRSYILTQGPLPNTCGHFWEMVWEQKSRGVVMLNRVMEKGSLKCAQYWPQKEEKEMIFEDTNLKLTLISEDIKSYYTVRQLELENLTTQETREILHFHYTTWPDFGVPESPASFLNFLFKVRESGSLSPEHGPVVVHCSAGIGRSGTFCLADTCLLLMDKRKDPSSVDIKKVLLEMRKFRMGLIQTADQLRFSYLAVIEGAKFIMGDSSVQDQWKELSHEDLEPPPEHIPPPPRPPKRILEPHN ?
A. 37100

Continue with the next protein.
Q. Fill blank: measured kcat/KM (dephosphorylation of pCAP peptide) of the protein TCPTP (protein) MPTTIEREFEELDTQRRWQPLYLEIRNESHDYPHRVAKFPENRNRNRYRDVSPYDHSRVKLQNAENDYINASLVDIEEAQRSYILTQGPLPNTCCHFWLMVWQQKTKAVVMLNRIVEKESVKCAQYWPTDDQEMLFKETGFSVKLLSEDVKSYYTVHLLQLENINSGETRTISHFHYTTWPDFGVPESPASFLNFLFKVRESGSLNPDHGPAVIHCSAGIGRSGTFSLVDTCLVLMEKGDDINIKQVLLNMRKYRMGLIQTPDQLRFSYMAIIEGAKCIKGDSSIQKRWKELSKEDLSPAFDHSPNKIMTEKYN is ____.
A. 2780
